Experiment: Shuffled variant libraries: 14CO2 capturing assay in 384-well format
Conditions: decarboxylation activity (carbon dioxide released) compared with unmutated backbone protein SEQ ID NO 133 (DDEC0201)
Parameter Fold Activity: see the listing below.
Give only the figure.

# count of solved cases: 4
>>> numeric_readout("138 (protein, Dicamba decarboxylase variant) MAQGKVALEEHFAIPETLQDSAGFVPGDYWKELQHRLLDIQDTRLKLMDAHGIETMILSLAAPAVQAIPDRRKAIEIARRANDFLAEECAKRPDRFLAFAALPLQDPDAATEELQRCVNDLGFVGALVNGFSQEGDGQTPLYYDLPQYRPFWGEVEKLDVPFYLHPRNPLPQDSRIYDGHPWLLGPTWAFAQETAVHALRLMASGLFDEHPRLNIILGHMGEGLPYMMYRIDHRIAWVHEPPRYPAKRRFMDYFNENFHITTSGNFRTQTLIDAILEIGADRILFSTDWPFENIDHAADWFNATSIAEADRLKIGRTNARRLFKLDLD")
1.1
>>> numeric_readout("142 (protein, Dicamba decarboxylase variant) MAQGKVALEEHFAIPETLQDSAGFVPGDYWKELQHRLLDIQDTRLKLMDAHGIETMILSLAAPAVQAIPDRRKAIEIARRANDFLAEECAKRPDRFLAFAALPLQDPDAATEELQRTVNDLGFVGALVNGFSQEGDGQTPLYYDLPQYRPFWGEVEKLDVPFYLHPRNPLPQDSRIYDGHPWLLGPTWAFAQETAVHALRLMASGLFDEHPRLNIILGHLGEGLPYMMYRIDHRIAWVHEPPRYPAKRRFMDYFNENFHITTSGNFRTQTLIDAILEIGADRILFSTDWPFENIDHAADWFNATSIAEADRVKIGRTNARRLFKLDLD")
1.4
>>> numeric_readout("253 (protein, Dicamba decarboxylase variant) MAQGKVALEEHFAIPETLQDSAGFVPGDYWKELQHRLLDIQDTRLKLMDAHGIETMILSLAAPAVQAIPDRVKAIEIARRANDFLAEECAKRPDRFLAFAALPLQDPDAATEELQRCVNDLGFVGALVNGFSQEGDGQTPLYYDLPQYRPFWGEVEKLDVPFYLHPRNPLPQDSRIYDGHPWLLGPTWAFAQETAVHALRLMASGLFDEHPRLNIILGHMGEGLPYMMYRIDHRIAWVKLPPRYPAKRRFMDYFNENFHITTSGNFRTQTLIDAILEIGADRILFSTDWPFENIDHAADWFNATSIAEADRVKIGRTNARRLFKLDGD")
1.7
>>> numeric_readout("139 (protein, Dicamba decarboxylase variant) MAQGKVALEEHFAIPETLQDSAGFVPGDYWKELQHRLLDIQDTRLKLMDAHGIETMILSLAAPAVQAIPDRRKAIEIARRANDFLAEECAKRPDRFLAFAALPLQDPDAATEELQRCVNDLGFVGALVNGFSQEGDGQTPLYYDLPQYRPFWGEVEKLDVPFYLHPRNPLPQDSRIYDGHPWLLGPTWAFAQETAVHALRLMASGLFDEHPRLNIILGHMGEGLPYMMYRIDHRIAWVKLPPRYPAKRRFMDYFNENFHITTSGNFRTQTLIDAILEIGADRILFSTDWPFENIDHAADWFNATSIAEADRLKIGRTNARRLFKLDGD")
1.1

Retrieve Fold Activity measured for 257 (protein, Dicamba decarboxylase variant) MAQGKVALEEHFAIPETLQDSAGFVPGDYWKELQHRLLDIQDTRLKLMDAHGIETMILSLAAPAVQAIPDRRKAIEIARRANDFLAEECAKRPDRFLAFAALPLQDVDAATEELQRCVNDLGFVGALVNGFSVEGDGQTPLYYDLPQYRPFWGEVEKLDVPFYLHPRNPLPQDSRIYDGHPWLLGPTWAFAQETAVHALRLMASGLFDEHPRLNIILGHMGEGLPYMMYRIDHRIAWVHEPPRYPAKRRFMDYFLENFHITTSGNFRTQTLIDAILEIGADRILFSTDWPFENIDHAADWFNATSIAEADRVKIGRTNARRLFKLDLD and print it.
1.6
